- System: HEK-293T
- ASSAY OVERVIEW: Cytotoxicity against human HEK293T cells assessed as reduction in cell viability at 5 to 50 uM incubated for 24 hrs by XTT assay
- Assay type: cell-based
VALUE KIND: Activity

The following molecules have reported results that may help.
{"MOLECULE": "OC(Cn1cncn1)(Cn1cncn1)c1ccc(F)cc1F", "MEASURED TARGET": "HEK-293T", "Activity": "Non-Toxic"}
{"MOLECULE": "CCC(CC)Oc1ccc2cc(C(=O)NCC(O)(Cn3cncn3)c3ccc(Cl)cc3Cl)c(=O)oc2c1 (racemic)", "MEASURED TARGET": "HEK-293T", "Activity": "Non-Toxic"}
{"MOLECULE": "CCN(CC)c1ccc2cc(C(=O)NCC(O)(Cn3cncn3)c3ccc(Cl)cc3Cl)c(=O)oc2c1 (racemic)", "MEASURED TARGET": "HEK-293T", "Activity": "Non-Toxic"}
{"MOLECULE": "CCC(CC)Oc1ccc2cc(C(=O)NCC(O)(Cn3ccnc3)c3ccc(Cl)cc3Cl)c(=O)oc2c1 (racemic)", "MEASURED TARGET": "HEK-293T", "Activity": "Non-Toxic"}
{"MOLECULE": "CC[C@@H]([C@H](C)O)n1ncn(-c2ccc(N3CCN(c4ccc(OC[C@@H]5CO[C@@](Cn6cncn6)(c6ccc(F)cc6F)C5)cc4)CC3)cc2)c1=O", "MEASURED TARGET": "HEK-293T", "Activity": "Toxic"}

Fill in: HEK-293T Activity for CCN(CC)c1ccc2cc(C(=O)NCC(O)(Cn3ccnc3)c3ccc(Cl)cc3Cl)c(=O)oc2c1 (racemic) = Toxic

Fill in: HEK-293T Activity for CC(=O)N1CCN(c2ccc(OCC3COC(Cn4ccnc4)(c4ccc(Cl)cc4Cl)O3)cc2)CC1 (racemic) = Toxic

----------
- System: Candida albicans
- ASSAY OVERVIEW: Antifungal activity against Candida albicans SN152 assessed as reduction in fungal cell growth incubated for 24 hrs by MTT based broth double dilution method
- Assay type: functional
- TEST SETTINGS: SN152, 24 h
VALUE KIND: MIC (µg/mL)
Give the value, in units of µg/mL, as a plain number.

{"COMPOUND": "CC(=O)N1CCN(c2ccc(OCC3COC(Cn4ccnc4)(c4ccc(Cl)cc4Cl)O3)cc2)CC1 (racemic)", "MIC, µg/mL": 0.007}
{"COMPOUND": "O=C(NCC(O)(Cn1cncn1)c1ccc(F)cc1F)c1cc2ccccc2[nH]c1=O (racemic)", "MIC, µg/mL": 0.5}

Attention now shifts to the item below.
Memo: CCN(CC)c1ccc2cc(C(=O)NCC(O)(Cn3ccnc3)c3ccc(Cl)cc3Cl)c(=O)oc2c1 (racemic) , reported MIC: 0.03

----------
- MEASURED TARGET: Cytochrome P450 3A4 (Homo sapiens, UniProt P08684)
- Sequence (P08684 whole entry): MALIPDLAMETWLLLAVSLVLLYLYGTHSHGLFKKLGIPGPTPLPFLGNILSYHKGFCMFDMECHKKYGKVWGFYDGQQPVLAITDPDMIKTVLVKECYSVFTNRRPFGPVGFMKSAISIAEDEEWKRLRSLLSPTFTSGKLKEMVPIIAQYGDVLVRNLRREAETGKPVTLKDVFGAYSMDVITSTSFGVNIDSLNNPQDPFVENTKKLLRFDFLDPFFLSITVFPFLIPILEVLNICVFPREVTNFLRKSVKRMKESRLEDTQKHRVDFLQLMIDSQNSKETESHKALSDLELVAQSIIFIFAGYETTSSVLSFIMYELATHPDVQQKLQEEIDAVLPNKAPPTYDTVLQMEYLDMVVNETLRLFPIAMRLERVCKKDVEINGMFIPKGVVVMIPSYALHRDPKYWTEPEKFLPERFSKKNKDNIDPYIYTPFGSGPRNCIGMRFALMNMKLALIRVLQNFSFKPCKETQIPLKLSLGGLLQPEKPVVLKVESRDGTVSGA
- ASSAY OVERVIEW: Inhibition of recombinant human CYP3A4 using Luciferin-PPXE as substrate preincubated for 10 mins followed by NADPH addition measured after 15 mins by luminometric method
VALUE KIND: pIC50
Entry type: numeric. Quantity: pIC50, the -log10 of concentration in molar units.

The following compounds have reported results that may help.
{"COMPOUND": "CCC(CC)Oc1ccc2cc(C(=O)NCC(O)(Cn3ccnc3)c3ccc(Cl)cc3Cl)c(=O)oc2c1 (racemic)", "pIC50": 6.60}
{"COMPOUND": "CCC(CC)Oc1ccc2cc(C(=O)NCC(O)(Cn3ccnc3)c3ccc(F)cc3F)c(=O)oc2c1 (racemic)", "pIC50": 6.48}
{"COMPOUND": "CCN(CC)c1ccc2cc(C(=O)NCC(O)(Cn3ccnc3)c3ccc(F)cc3F)c(=O)oc2c1 (racemic)", "pIC50": 5.88}

Memo: CCN(CC)c1ccc2cc(C(=O)NCC(O)(Cn3cncn3)c3ccc(Cl)cc3Cl)c(=O)oc2c1 (racemic) , reported pIC50: 6.45

Memo: CCN(CC)c1ccc2cc(C(=O)NCC(O)(Cn3cncn3)c3ccc(F)cc3F)c(=O)oc2c1 (racemic) , reported pIC50: 5.99

Memo: CCN(CC)c1ccc2cc(C(=O)NCC(O)(Cn3ccnc3)c3ccc(Cl)cc3Cl)c(=O)oc2c1 (racemic) , reported pIC50: 6.90

These data points were gathered from ChEMBL document CHEMBL4351026.
